B1: DnaJ homolog subfamily C member 2, residues 451 to 503; numbered along this chain, Q99543 (parent)
chain: SKNWSEDDLQLLIKAVNLFPAGTNSRWEVIANYMNIHSSSGVKRTAKDVIGKA

variants of: B1; assay: abundance fitness (aPCA) (normalised: wild type 0, dead -1); higher = more abundant; growth selection in yeast, the domain comes from the species named; details: Homo sapiens
Mark Criterion met for reported abundance fitness of -0.2 or greater; mark Criterion not met for anything smaller.

RESIDUE CHANGE: L12Y
LABEL CLASS: Criterion met
--
RESIDUE CHANGE: Y33L
LABEL CLASS: Criterion not met
--
RESIDUE CHANGE: T23F
LABEL CLASS: Criterion met
--
RESIDUE CHANGE: D48V
LABEL CLASS: Criterion not met
--
RESIDUE CHANGE: M34H
LABEL CLASS: Criterion not met
